Attribution: ChEMBL document CHEMBL3988442

tested on: Leishmania donovani; assay: Leishmania intramacrophage assay; assay type: functional, organism-based; design: scale not given: in the data most compounds retested in dose-response had high values; conditions: 30.3 µM; […]
In all, about 69,000 compounds went through this assay and about 1,000 (1.4%) showed an effect of 50% or more. The sample as a whole holds a higher share of strong results than the screen did.
Each entry below carries its recorded Percent Effect.
State the answer as a number, implicitly in %.

# count of solved cases: 3
c1cnn(-c2ccc(CCNC3CCN(C4CC4)C3)cc2)c1 (stereo unspecified) : -4.355
Cc1noc(CN2CCN(c3cncc(Cl)n3)CC2)n1 : 51.54
Cc1cc(SC(C)(C)C)ccc1NC(C)C(=O)NC(N)=O (stereo unspecified) : -16.97

Name the recorded Percent Effect for CC(CNC1CCN(c2ccccn2)CC1)Oc1ccc(F)cc1 (stereo unspecified) .
19.84

Name the recorded Percent Effect for Cc1ccc(CN2C[C@@H]3CN(CC4CCOCC4)CCO[C@@H]3C2)s1.O=C(O)C(F)(F)F.O=C(O)C(F)(F)F .
24.65

Name the recorded Percent Effect for FC(F)CN1CCC(NCCc2ccc(-n3cccn3)cc2)CC1 .
23.28
